Target: T1, human CCR8 (human, UniProt P51685 1-355)
T1 construct: whole, on cells; also called hCCR8
T1 sequence (P51685 whole entry): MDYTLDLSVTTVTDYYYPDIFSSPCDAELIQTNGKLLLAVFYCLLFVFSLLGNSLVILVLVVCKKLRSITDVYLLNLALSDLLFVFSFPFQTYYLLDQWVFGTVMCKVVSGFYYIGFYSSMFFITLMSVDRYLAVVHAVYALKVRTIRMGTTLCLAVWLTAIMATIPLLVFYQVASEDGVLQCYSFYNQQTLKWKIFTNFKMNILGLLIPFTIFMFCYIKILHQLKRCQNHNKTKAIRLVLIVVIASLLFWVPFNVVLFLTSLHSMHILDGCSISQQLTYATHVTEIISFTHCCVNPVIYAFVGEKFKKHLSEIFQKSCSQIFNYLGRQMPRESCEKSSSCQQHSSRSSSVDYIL
Assay: FACS on HEK293-human CCR8 cells
property label: pEC50
A value of pEC50 is the negative decimal logarithm of a concentration given in moles per litre.

Answered cases to consult:
Look at this binder and give its reported pEC50. 149F2C10_G29A (antibody, V domains shown, NG site removed variant of 149F2C10) VH: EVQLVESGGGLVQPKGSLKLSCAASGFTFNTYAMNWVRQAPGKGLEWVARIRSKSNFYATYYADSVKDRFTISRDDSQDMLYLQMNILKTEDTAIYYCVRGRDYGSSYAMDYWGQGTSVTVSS VL: DIVMTQAAPSVPVTPGESVSISCRSSKSLLHSNANTYLYWFLQRPGQSPQLLIYRMSNLASGVPDRFSGSGSGTAFTLRISRVEAEDVGVYYCMQHLEYPLTFGAGTKLELK 9.89

GET /values?readout=pEC50&item= 149F2C10_N28Q (antibody, V domains shown, NG site removed variant of 149F2C10; detected with anti-mouse IgG) VH: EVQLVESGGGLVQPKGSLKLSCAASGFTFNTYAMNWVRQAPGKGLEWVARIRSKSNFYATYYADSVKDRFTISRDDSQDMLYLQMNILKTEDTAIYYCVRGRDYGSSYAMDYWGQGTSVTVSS VL: DIVMTQAAPSVPVTPGESVSISCRSSKSLLHSQGNTYLYWFLQRPGQSPQLLIYRMSNLASGVPDRFSGSGSGTAFTLRISRVEAEDVGVYYCMQHLEYPLTFGAGTKLELK 9.79

Quick check: pEC50 of 149F2C10 (antibody, V domains shown, purified murine hybridoma antibody) VH: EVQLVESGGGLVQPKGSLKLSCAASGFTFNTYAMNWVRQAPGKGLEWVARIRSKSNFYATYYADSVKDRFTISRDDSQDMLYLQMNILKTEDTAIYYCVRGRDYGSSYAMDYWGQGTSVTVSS VL: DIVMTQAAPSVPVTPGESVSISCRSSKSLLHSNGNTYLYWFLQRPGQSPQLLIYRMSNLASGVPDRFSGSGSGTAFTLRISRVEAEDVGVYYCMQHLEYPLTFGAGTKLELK ? 9.76

Requested read-out: pEC50. Entry: 149F2C10_G29I (antibody, V domains shown, NG site removed variant of 149F2C10) VH: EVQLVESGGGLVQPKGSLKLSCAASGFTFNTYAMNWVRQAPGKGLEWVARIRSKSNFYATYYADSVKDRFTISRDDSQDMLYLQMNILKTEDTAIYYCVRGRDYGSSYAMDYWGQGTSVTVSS VL: DIVMTQAAPSVPVTPGESVSISCRSSKSLLHSNINTYLYWFLQRPGQSPQLLIYRMSNLASGVPDRFSGSGSGTAFTLRISRVEAEDVGVYYCMQHLEYPLTFGAGTKLELK 9.84

Let's switch to this binder now.
GET /values?readout=pEC50&item= 149F2C10_G29V (antibody, V domains shown, NG site removed variant of 149F2C10) VH: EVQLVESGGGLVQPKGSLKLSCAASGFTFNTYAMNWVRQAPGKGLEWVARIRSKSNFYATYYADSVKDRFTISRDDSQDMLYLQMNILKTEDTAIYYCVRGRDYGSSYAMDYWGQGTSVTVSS VL: DIVMTQAAPSVPVTPGESVSISCRSSKSLLHSNVNTYLYWFLQRPGQSPQLLIYRMSNLASGVPDRFSGSGSGTAFTLRISRVEAEDVGVYYCMQHLEYPLTFGAGTKLELK 9.71

Entry source: patent US20250034266A1
